Every entry's value here was drawn from patent US10941132B2.

Readings of pIC50 for the listed molecules
Target: recombinant rat mGluR5 (Rattus norvegicus)
Construct: expressed in transfected cells
Sequence (P31424 21-1203): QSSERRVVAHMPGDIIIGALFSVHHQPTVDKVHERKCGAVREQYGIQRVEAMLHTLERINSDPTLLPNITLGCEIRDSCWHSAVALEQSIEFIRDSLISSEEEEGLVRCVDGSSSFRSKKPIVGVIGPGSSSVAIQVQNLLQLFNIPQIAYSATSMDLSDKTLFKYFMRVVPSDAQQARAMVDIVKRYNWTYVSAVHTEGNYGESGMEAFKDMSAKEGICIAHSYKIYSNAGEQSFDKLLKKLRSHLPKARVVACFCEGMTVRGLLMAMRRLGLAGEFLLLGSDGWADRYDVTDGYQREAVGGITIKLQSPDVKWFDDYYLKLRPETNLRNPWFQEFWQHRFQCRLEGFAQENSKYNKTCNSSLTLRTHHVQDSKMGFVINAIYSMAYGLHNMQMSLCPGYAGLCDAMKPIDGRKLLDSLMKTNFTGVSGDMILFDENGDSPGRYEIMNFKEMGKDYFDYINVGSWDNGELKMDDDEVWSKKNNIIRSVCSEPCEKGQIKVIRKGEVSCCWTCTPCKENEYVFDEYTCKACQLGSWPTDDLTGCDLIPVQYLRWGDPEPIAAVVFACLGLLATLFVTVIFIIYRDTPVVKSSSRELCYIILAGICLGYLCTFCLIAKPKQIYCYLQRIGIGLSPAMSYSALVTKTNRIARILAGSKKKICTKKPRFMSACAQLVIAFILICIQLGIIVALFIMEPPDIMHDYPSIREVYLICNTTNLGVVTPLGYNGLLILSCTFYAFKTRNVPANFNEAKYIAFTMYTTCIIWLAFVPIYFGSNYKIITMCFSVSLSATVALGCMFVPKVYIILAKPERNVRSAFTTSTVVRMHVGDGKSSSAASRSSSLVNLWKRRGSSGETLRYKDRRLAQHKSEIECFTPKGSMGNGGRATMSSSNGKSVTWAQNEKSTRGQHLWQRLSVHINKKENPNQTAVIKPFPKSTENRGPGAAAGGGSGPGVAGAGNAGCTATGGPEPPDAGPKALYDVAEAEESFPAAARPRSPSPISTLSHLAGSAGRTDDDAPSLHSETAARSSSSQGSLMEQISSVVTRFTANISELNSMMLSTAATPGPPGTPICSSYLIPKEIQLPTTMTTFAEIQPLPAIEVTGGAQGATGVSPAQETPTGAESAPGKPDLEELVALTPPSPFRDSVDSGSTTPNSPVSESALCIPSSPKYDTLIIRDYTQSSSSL
Experiment: Functional calcium flux assay (FLIPR), antagonist evaluation against glutamate-evoked [Ca2+]i increase
Type: cell-based
Settings: Table 1; HEK293 cells stably expressing recombinant rat mGluR5; 15 min incubation of test compound, then submaximal glutamate; read-out: IC50 value (FLIPR assay)
pIC50: −log10 of the molar value.

[
  {
    "smiles-data": "COCCOc1nn(-c2cc(F)cc(C#N)c2)c(C)c1C#Cc1ccccn1",
    "pIC50": "≥ 6.30"
  },
  {
    "smiles-data": "Fc1ccc(-n2cc(C#Cc3cnccn3)cn2)cc1",
    "pIC50": "≥ 6.30"
  },
  {
    "smiles-data": "Cc1nn(-c2ccc(F)cc2)c(C)c1C#Cc1ncccn1",
    "pIC50": "≥ 6.30"
  },
  {
    "smiles-data": "COCCOc1ccc(-n2cc(C#Cc3ccccn3)cn2)cn1",
    "pIC50": "≥ 6.30"
  },
  {
    "smiles-data": "FC(F)(F)Oc1ccc(-n2cc(C#Cc3ccccc3)cn2)cc1",
    "pIC50": "5.30 to 6.00"
  },
  {
    "smiles-data": "FC(F)(F)Oc1ccc(-n2ncc(C#Cc3ccccn3)c2Cl)cc1",
    "pIC50": "≥ 6.30"
  },
  {
    "smiles-data": "FC(F)(F)c1ccc(-n2ncc(C#Cc3ncccn3)c2Cl)cc1",
    "pIC50": "≥ 6.30"
  },
  {
    "smiles-data": "FC(F)(F)Oc1ccc(-n2cc(C#Cc3ncccn3)cn2)cc1",
    "pIC50": "≥ 6.30"
  },
  {
    "smiles-data": "Cc1nn(-c2ccc(OC(F)(F)F)cc2)c(C)c1C#Cc1ncccn1",
    "pIC50": "≥ 6.30"
  },
  {
    "smiles-data": "N#Cc1cc(F)cc(-n2cc(C#Cc3ccccn3)c(C3CC3)n2)c1",
    "pIC50": "≥ 6.30"
  },
  {
    "smiles-data": "Fc1ccc(-n2cc(C#Cc3ncccn3)c(Cl)n2)cc1",
    "pIC50": "≥ 6.30"
  },
  {
    "smiles-data": "COCCOc1c(C#Cc2ccccn2)cnn1-c1ccc(F)cc1",
    "pIC50": "≥ 6.30"
  },
  {
    "smiles-data": "Fc1ccc(-n2cc(C#Cc3ccccn3)cn2)cn1",
    "pIC50": "≥ 6.30"
  },
  {
    "smiles-data": "FC(F)(F)Oc1ccc(-n2cc(C#Cc3ccccn3)c(Cl)n2)cc1",
    "pIC50": "≥ 6.30"
  },
  {
    "smiles-data": "Cc1nn(-c2cc(F)cc(C#N)c2)c(C)c1C#Cc1ccccn1",
    "pIC50": "≥ 6.30"
  },
  {
    "smiles-data": "Fc1ccc(-n2cc(C#Cc3ncccn3)cn2)cc1",
    "pIC50": "≥ 6.30"
  },
  {
    "smiles-data": "N#Cc1cc(F)cc(-n2cc(C#Cc3ccncc3)cn2)c1",
    "pIC50": "≥ 6.30"
  },
  {
    "smiles-data": "COCCOc1nn(-c2ccc(OC(F)(F)F)cc2)cc1C#Cc1ccccn1",
    "pIC50": "5.30 to 6.00"
  },
  {
    "smiles-data": "N#Cc1cc(F)cc(-n2cc(C#Cc3ccccc3)cn2)c1",
    "pIC50": "5.30 to 6.00"
  },
  {
    "smiles-data": "Cc1c(C#Cc2ccccn2)c(N(C)C)nn1-c1ccc(OC(F)(F)F)cc1",
    "pIC50": "5.30 to 6.00"
  }
]
